Data provenance: the supplement of paper PMC6470124

experiment: absolute recovery over vacuum-assisted evaporative concentration; higher = better recovery; details: wastewater effluent; enrichment method: VEC
Here the recorded absolute recovery is given for each entry.
Respond numerically; units are % and should not be typed.

CC=CC(=O)N(CC)C(CC)C(=O)N(C)C (centres undefined) [Crotethamide]    97.5
C[NH+]1CCN2c3ccccc3Cc3ccccc3C2C1 (centres undefined)    104
CS(=O)(=O)c1ccc(C(=O)[C-]2C(=O)CCCC2=O)c(Cl)c1    103

Provide one value: measured absolute recovery of CSC1=NC(C)(c2ccccc2)C(=O)N1Nc1ccccc1 (centres undefined) 106

Provide one value: measured absolute recovery of C[N+](C)([O-])CCC(c1ccccc1)c1ccccn1 (centres undefined) [Pheniramine-N-oxide] 105

Provide one value: measured absolute recovery of CS(=O)(=O)c1ccc(C(=O)[C-]2C(=O)CCCC2=O)c([N+](=O)[O-])c1 103

Provide one value: measured absolute recovery of CC(C)OC(=O)NC(C(=O)NC(C)c1nc2ccc(F)cc2s1)C(C)C (centres undefined) 108

Provide one value: measured absolute recovery of Cc1ccc(-c2c(Cl)nc(C#N)n2S(=O)(=O)N(C)C)cc1 99.5

Provide one value: measured absolute recovery of O=P1(N(CCCl)CCCl)NCCCO1 (centres undefined) 104

Provide one value: measured absolute recovery of O=S(=O)([O-])c1ccc2ccccc2c1 114

Provide one value: measured absolute recovery of Cc1c(OCC(F)(F)F)ccnc1CS(=O)c1nc2ccccc2[nH]1 (centres undefined) 86.8

Provide one value: measured absolute recovery of CN(C)C(=O)Nc1ccc(-n2nc(C(C)(C)C)oc2=O)c(Cl)c1 108

Provide one value: measured absolute recovery of NS(=O)(=O)Cc1noc2ccccc12 [Zonisamide] 103

Provide one value: measured absolute recovery of CC12C=CC(=O)C=C1CCC1C2C(=O)CC2(C)C1CCC2(O)C(=O)CO (centres undefined) 96.6

Provide one value: measured absolute recovery of O=C([O-])c1cc(Br)c([O-])c(Br)c1 [3-5-Dibromo-4-hydroxybenzoic-acid] 104

Provide one value: measured absolute recovery of CCOC(=O)C1CC(=O)C(=C([O-])C2CC2)C(=O)C1 (centres undefined) 102

Provide one value: measured absolute recovery of CCNc1nc(O)nc(NCC)n1 [Simazin-2-hydroxy] 105

Provide one value: measured absolute recovery of Clc1cccc(N2CC[NH2+]CC2)c1 103

Provide one value: measured absolute recovery of CNC(=C[N+](=O)[O-])NCCS(=O)Cc1ccc(C[NH+](C)C)o1 (centres undefined) 83.5

====

experiment: LC retention time (Atlantis T3, 5-95% MeOH gradient, 0.1% formic acid); higher = more retained / less polar
Here the recorded LC retention time is given for each entry.
Respond numerically; units are min and should not be typed.

COC=C(C(=O)OC)c1ccccc1COc1cccc(C(F)(F)F)n1 [Picoxystrobin]    20.3
Nc1cn[nH+]c([O-])c1Cl [Chloridazon-desphenyl]    7.56
C[NH2+]CC(c1ccc(OC)cc1)C1(O)CCCCC1 (configuration not stated) [N-Desvenlafaxin]    14.1
Cc1cccc(C)c1OCC(C)[NH3+] (configuration not stated) [Mexiletine]    13.2
CCCCCOC(=O)[N-]c1nc(=O)n(C2OC(C)C(O)C2O)cc1F (configuration not stated) [Capecitabin]    17.7
CCCc1nc2c(C)cc(-c3nc4ccccc4n3C)cc2n1Cc1ccc(-c2ccccc2C(=O)[O-])cc1 [Telmisartan]    17.1

Provide one value: measured LC retention time of Nc1c(I)c(N)c(I)c(C(=O)[O-])c1I [3-5-Diamino-2-4-6-triiodobenzoic-acid] 15.4

Provide one value: measured LC retention time of CC12CCC3=C4CCC(=O)C=C4CCC3C1CCC2(O)CC#N (configuration not stated) [Dienogest] 18.1

Provide one value: measured LC retention time of Cc1c(N)c(=O)n(-c2ccccc2)n1C [4-Aminopyrin (=4-Aminoantipyrin, 4-AA)] 9.66

Provide one value: measured LC retention time of Cc1ccc(NC(=O)N(C)C)cc1Cl [Chlortoluron] 18.2

Provide one value: measured LC retention time of CC(=O)N(C)c1ccccc1 [N-Methylacetanilid] 15.5
